Every entry's value here was drawn from patent US7282340B2.

test: Single-dose pharmacokinetics in the rat; assay type: in vivo, Sprague-Dawley rat; conditions: subcutaneous injection 174 mg/kg
measurement.label: Cmax (nM)
Write the number in nM without appending the unit.

-- ask What measured Cmax goes with COc1cc(C(=O)C(=O)N2CCCC[C@H]2C(=O)OC(CCCc2ccccc2)CCCc2cccnc2)cc(OC)c1OC.Cl (stereo partly shown) [V-10,367] ?
-- reply 285
